Tgt: human vasopressin V1b receptor (Homo sapiens, UniProt P47901)
Sequence (P47901 whole entry): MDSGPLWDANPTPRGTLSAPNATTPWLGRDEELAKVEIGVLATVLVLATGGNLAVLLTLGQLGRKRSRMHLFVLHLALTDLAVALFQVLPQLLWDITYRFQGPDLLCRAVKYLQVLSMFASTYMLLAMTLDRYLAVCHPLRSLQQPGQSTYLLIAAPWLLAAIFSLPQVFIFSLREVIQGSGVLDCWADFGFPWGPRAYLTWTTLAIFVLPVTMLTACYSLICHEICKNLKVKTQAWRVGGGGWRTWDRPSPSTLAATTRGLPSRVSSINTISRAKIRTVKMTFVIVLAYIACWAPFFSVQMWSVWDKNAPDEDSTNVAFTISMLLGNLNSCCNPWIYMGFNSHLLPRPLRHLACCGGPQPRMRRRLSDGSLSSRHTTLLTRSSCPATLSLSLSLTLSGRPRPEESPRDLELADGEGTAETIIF
Experiment Summary: biochemical
pKi: −log10 of the molar value.
Measured pKi of individual entries
Readout: pKi

Cpd Smiles: CCOc1ncccc1[C@]1(NC(=O)N2CCN(C3CCN(C4COC4)CC3)CC2)C(=O)N(S(=O)(=O)c2ccc(OC)cn2)c2ccc(C#N)cc21
Result: 8.00 to 9.00

Cpd Smiles: COc1ccc(S(=O)(=O)N2C(=O)[C@@](NC(=O)N3CCN(C4CCN(C5COC5)CC4)CC3)(c3cc(OC)ccc3OC)c3cc(C#N)ccc32)c(OC)c1
Result: > 9.00

Cpd Smiles: CCOc1ncccc1[C@]1(NC(=O)N2CCN(C3CCN(C4COC4)CC3)CC2)C(=O)N(S(=O)(=O)c2ccc(OC)cc2)c2ccc(C#N)cc21
Result: 7.00 to 8.00
